Reference source for all entries: ChEMBL document CHEMBL3774322

assay: Lipophilicity, logP of compound
Format: physicochemical
condition-info: octanol/water
Parameter: logP. Scope: all listed entries.
Enter a number only.

Use the examples below as a reference point.
Please give measured logP of the following entry: CCCCCC(=O)O[C@@H]1O[C@@H]2O[C@@]3(C)CC[C@H]4[C@H](C)CC[C@@H]([C@H]1C)[C@@]24OO3 5.28

Give the value of logP reported for the following: C[C@H]1[C@H](OC(=O)CC(c2ccc(Cl)cc2)c2ccc(Cl)cc2)O[C@@H]2O[C@@]3(C)CC[C@H]4[C@H](C)CC[C@@H]1[C@@]24OO3 8.27

Could you now consider this next molecule?
Tell us which logP value is on record for COc1ccc(C(CC(=O)O[C@@H]2O[C@@H]3O[C@@]4(C)CC[C@H]5[C@H](C)CC[C@@H]([C@H]2C)[C@@]35OO4)c2ccc(OC)cc2)cc1 6.9
